This collection of values is drawn from PubChem BioAssay (EPA / NIEHS).

- Read-out: Collagen III, COL3A1 (gene 1281)
- MEASUREMENT NOTES: BSK_MyoF_CollagenIII: BioMAP Diversity Plus: MyoF Assay for Collagen III Biomarker Activity (AID 2284239)
- PROTOCOL CONDITIONS: primary human lung fibroblasts
The source made the active and inactive calls. The calls were made as follows: active = hit-call score of the fitted dose curve at least 0.9, where 1 is the maximum; inactive = score below 0.9.
# output must be one of Yes = active, No = inactive

{"columns": ["COMPOUND", "GROUP"],
 "data": [
  ["O=P(O)(O)CCC(F)(F)C(F)(F)C(F)(F)C(F)(F)C(F)(F)C(F)(F)C(F)(F)C(F)(F)F", "No"],
  ["CN(C)c1ccc(C(=C2C=CC(=[N+](C)C)C=C2)c2ccccc2)cc1", "Yes"],
  ["CCCCCCCCCCCCCCCCCC[N+](C)(C)Cc1ccccc1", "Yes"],
  ["O=C1c2ccc(O)c(O)c2C(=O)c2c(O)ccc(O)c21", "No"],
  ["C=CC(C)(CCC=C(C)C)OC(C)=O (stereo not drawn)", "No"]
]}

query: Check the results log: what was the call for OCCN1CN(CCO)CN(CCO)C1 ?
result: No

query: Please do the same for O=P(O)(O)CCC(F)(F)C(F)(F)C(F)(F)C(F)(F)C(F)(F)C(F)(F)F as well.
result: No

query: Ok, now CCCCC(CC)C(=O)OCCOCCOCCOCCOC(=O)C(CC)CCCC (stereo not drawn)
result: No

query: Repeat for the following compound: CC1=NN(c2ccccc2)C(=O)C1
result: Yes

query: How about this compound: CN(CCO)S(=O)(=O)C(F)(F)C(F)(F)C(F)(F)C(F)(F)C(F)(F)C(F)(F)C(F)(F)C(F)(F)F
result: No

query: Also COC1=CC(=O)C[C@@H](C)[C@]12Oc1c(Cl)c(OC)cc(OC)c1C2=O ?
result: Yes

query: Please do the same for OCC(F)(F)C(F)(F)C(F)(F)C(F)(F)C(F)(F)C(F)(F)C(F)(F)C(F)(F)C(F)(F)C(F)(F)C(F)(F)F as well.
result: No

query: Now try C=CC(=O)OCCC(F)(F)C(F)(F)C(F)(F)C(F)(F)C(F)(F)C(F)(F)C(F)(F)C(F)(F)F .
result: No

====

- Read-out: E-selectin (Homo sapiens) (UniProt P16581)
- Sequence (P16581 whole entry, looked up): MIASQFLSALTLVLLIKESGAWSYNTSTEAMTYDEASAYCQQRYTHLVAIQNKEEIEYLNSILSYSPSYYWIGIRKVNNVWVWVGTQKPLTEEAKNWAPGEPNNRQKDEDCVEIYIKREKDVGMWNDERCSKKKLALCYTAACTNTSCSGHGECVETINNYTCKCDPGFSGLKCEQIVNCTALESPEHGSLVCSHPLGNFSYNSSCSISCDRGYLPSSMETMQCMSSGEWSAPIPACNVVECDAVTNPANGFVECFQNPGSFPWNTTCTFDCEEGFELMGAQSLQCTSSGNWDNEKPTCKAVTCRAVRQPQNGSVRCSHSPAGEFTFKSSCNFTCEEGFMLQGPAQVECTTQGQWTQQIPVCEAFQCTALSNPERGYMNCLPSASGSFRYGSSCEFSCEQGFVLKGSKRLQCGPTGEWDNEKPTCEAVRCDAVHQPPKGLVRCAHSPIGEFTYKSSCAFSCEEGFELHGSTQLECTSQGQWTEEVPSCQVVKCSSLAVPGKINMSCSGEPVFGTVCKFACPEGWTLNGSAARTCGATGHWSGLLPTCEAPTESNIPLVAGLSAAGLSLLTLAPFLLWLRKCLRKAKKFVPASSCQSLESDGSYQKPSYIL
- MEASUREMENT NOTES: BSK_SAg_Eselectin: BioMAP Diversity Plus: SAg Assay for Eselectin Biomarker Activity (AID 2283091)
- PROTOCOL CONDITIONS: primary human HUVEC with PBMC; actives raise or lower the signal
The source made the active and inactive calls. Rule for the calls: active = hit-call score of the fitted dose curve at least 0.9, where 1 is the maximum; inactive = score below 0.9.
Form entry, call: pick from active, inactive

Example entries begin here.
{"columns": ["COMPOUND", "GROUP"],
 "data": [
  ["O=C(O)CCC(F)(F)C(F)(F)C(F)(F)C(F)(F)C(F)(F)C(F)(F)F", "inactive"],
  ["OCCN1CN(CCO)CN(CCO)C1", "active"],
  ["CCCCC=O", "inactive"],
  ["Cc1ccc(N=Nc2c(O)ccc3ccccc23)c(C)c1", "inactive"],
  ["Oc1cc2ccccc2cc1O", "inactive"]
]}

query: Called result for Oc1ccc(Cc2ccccc2O)cc1
result: inactive

query: Also need O=C(NO)c1ccccc1 , thanks.
result: inactive

query: Param item: CC1=NN(c2ccccc2)C(=O)C1
result: inactive

query: Also, C=CC(=C)CC/C=C(\C)CCC=C(C)C please.
result: inactive

query: Queued: O=C(c1ccccc1)c1ccccc1
result: inactive

query: One more compound: CN(C)CCOC(c1ccccc1)c1ccccc1
result: inactive

query: Now try O=P(O)(O)CCC(F)(F)C(F)(F)C(F)(F)C(F)(F)C(F)(F)C(F)(F)C(F)(F)C(F)(F)F .
result: inactive

query: Next up: CCCCC(CC)C(=O)O (centres undefined)
result: inactive

query: Then Cc1[nH]nc2c1N=C(c1ccccc1Cl)c1cc([N+](=O)[O-])ccc1N2 ?
result: active
